B1: TSN (parent)
chain: AFVVYLETETLVTREAVTEILGIE

- Variants of: B1
- procedureText: protein stability index of a GFP-peptide fusion (GPS, HEK-293T) (PSI 1-6); higher = more stable;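 note: lentivirally expressed fusions sorted by FACS into six bins by GFP to DsRed ratio, PSI derived from sequencing read proportions per bin multiplied by bin number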
- appliedConditions: c terminus: a fixed tail appended
protein stability index for assorted variants
// return just the number, without any unit appended

| polymerSequence | protein stability index |
| --- | --- |
| AFVVYLESETLVTREAVTEILGIE [T8S] | 2.93 |

Please give the measured protein stability index for this variant: AFVVYIETETLVTREAVTEILGIE [L6I]
3.08

Please give the measured protein stability index for this variant: CFVVYLETETLVTREAVTEILGIE [A1C]
2.64

Please give the measured protein stability index for this variant: AFVVILETETLVTREAVTEILGIE [Y5I]
4.04

Please give the measured protein stability index for this variant: AFVVYVETETLVTREAVTEILGIE [L6V]
4.67

Please give the measured protein stability index for this variant: AKVVYLETETLVTREAVTEILGIE [F2K]
1.78

Please give the measured protein stability index for this variant: AFVVYLETEQLVTREAVTEILGIE [T10Q]
1.68
